Target: GSK3β (Homo sapiens, UniProt P49841)
Sequence (P49841 whole entry, species assumed): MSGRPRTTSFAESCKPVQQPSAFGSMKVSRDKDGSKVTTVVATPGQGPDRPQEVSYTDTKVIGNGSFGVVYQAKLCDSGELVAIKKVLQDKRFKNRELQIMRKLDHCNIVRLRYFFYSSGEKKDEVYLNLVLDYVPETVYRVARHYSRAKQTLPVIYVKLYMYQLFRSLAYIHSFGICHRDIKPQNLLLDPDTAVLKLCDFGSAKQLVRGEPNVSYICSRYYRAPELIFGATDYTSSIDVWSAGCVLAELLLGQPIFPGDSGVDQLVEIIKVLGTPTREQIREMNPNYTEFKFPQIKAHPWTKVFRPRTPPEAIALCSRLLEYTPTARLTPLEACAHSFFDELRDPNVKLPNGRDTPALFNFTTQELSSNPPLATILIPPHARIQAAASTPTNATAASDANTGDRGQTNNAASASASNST
Assay: GSK3β ATP depletion assay
Assay type: biochemical
Conditions: ATP depletion assay; read-out: GSK3b IC50
Procedure: GSK3β ATP Depletion Assay The activity of GSK3β is measured using a luciferase-luciferin based ATP detection reagent to quantify ATP depletion resulting from kinase-catalyzed phosphoryl transfer to a peptide substrate. Compounds to be tested are dissolved in 100% DMSO and directly distributed into white 384-well plates at 0.5 μl per well. […] The stopped reaction is incubated for 10 minutes and the remaining ATP is detected via luminescence on the Victor2 (Perkin Elmer).
pIC50: −log10 of the molar value.
REPORTED_METRIC: pIC50

1) CC(C)[C@H]1C[C@@H](N)C[C@@H](c2ccncc2NC(=O)c2ccc(F)c(-c3c(F)cccc3F)n2)O1	4.68
2) Nc1ncc(-c2ccccc2)nc1C(=O)Nc1cnccc1[C@H]1C[C@@H](N)[C@H]2CCC[C@H]2O1	8.12

(I) CC(C)(C)[C@H]1O[C@@H](c2ccncc2NC(=O)c2nc(-c3ccccc3)cnc2N)C[C@@H](N)[C@@H]1O
(II) Nc1cc(F)c(-c2c(F)cccc2F)nc1C(=O)Nc1cnccc1[C@H]1C[C@@H](N)[C@@]2(O)CCCC[C@H]2O1
Inquiry: Which gives the smaller pIC50 number: I or II ? Respond using the label that marks the chosen record.
Reply text: II

----------
molecular target: KDR kinase (Homo sapiens, UniProt P35968); experiment: KDR kinase inhibition assay (LanthaScreen TR-FRET); assay type: biochemical; conditions: TR-FRET assay
Sequence (P35968 20-1356): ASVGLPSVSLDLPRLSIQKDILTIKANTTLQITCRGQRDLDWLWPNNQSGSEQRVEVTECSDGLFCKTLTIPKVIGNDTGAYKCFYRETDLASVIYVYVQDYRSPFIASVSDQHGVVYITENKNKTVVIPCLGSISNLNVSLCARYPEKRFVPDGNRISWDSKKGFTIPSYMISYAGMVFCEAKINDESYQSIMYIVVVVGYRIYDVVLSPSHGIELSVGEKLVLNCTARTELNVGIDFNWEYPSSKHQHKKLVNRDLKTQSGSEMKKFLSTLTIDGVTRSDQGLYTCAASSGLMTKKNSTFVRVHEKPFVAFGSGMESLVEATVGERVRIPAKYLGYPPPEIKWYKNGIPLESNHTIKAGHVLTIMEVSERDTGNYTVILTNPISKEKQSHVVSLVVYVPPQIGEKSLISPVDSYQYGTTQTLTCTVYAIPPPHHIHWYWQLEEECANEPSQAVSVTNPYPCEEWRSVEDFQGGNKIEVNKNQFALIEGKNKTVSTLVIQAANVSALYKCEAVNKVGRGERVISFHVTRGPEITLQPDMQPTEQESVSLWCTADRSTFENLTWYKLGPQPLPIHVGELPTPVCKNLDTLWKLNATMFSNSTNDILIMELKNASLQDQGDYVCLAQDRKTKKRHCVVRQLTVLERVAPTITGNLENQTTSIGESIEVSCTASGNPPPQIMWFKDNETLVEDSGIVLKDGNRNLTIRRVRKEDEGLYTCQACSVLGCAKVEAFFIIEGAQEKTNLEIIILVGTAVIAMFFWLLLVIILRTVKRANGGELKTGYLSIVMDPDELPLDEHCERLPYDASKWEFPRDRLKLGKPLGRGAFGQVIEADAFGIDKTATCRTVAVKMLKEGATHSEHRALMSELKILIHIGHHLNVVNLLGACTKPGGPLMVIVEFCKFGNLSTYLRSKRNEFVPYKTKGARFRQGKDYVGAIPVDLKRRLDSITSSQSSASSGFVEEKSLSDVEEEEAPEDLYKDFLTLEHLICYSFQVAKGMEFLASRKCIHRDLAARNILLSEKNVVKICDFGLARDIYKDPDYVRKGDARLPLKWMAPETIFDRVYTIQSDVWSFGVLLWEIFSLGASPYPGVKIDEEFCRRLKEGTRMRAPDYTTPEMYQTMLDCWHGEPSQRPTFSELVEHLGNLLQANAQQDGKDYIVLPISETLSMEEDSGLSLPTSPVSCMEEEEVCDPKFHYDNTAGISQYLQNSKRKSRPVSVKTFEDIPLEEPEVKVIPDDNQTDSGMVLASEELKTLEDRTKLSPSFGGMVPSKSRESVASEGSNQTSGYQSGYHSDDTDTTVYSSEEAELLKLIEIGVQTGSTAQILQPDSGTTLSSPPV
REPORTED_METRIC: IC50 (nM)

Below: 9 molecules and their reported IC50.
1. CC(C)[C@H]1O[C@@H](c2ccncc2NC(=O)c2nc(-c3ccccc3)cnc2N)C[C@@H](N)[C@@H]1O [Example 356]	43
2. CC(C)(C)[C@@H]1O[C@H](c2ccncc2NC(=O)c2nc(-c3ccccc3)cnc2N)C[C@@H](N)[C@H]1O [Example 227]	1700
3. CC(C)[C@@H]1O[C@H](c2ccncc2NC(=O)c2nc(-c3ccccc3)cnc2N)C[C@H](N)[C@H]1O [Example 240]	5100
4. C[C@]1(O)[C@H](N)C[C@H](c2ccncc2NC(=O)c2nc(-c3ccccc3)cnc2N)O[C@@H]1C1CC1 [Example 344]	58
5. CCC[C@H]1O[C@@H](c2ccncc2NC(=O)c2nc(-c3ccccc3)cnc2N)C[C@@H](O)[C@@H]1O [Example 340]	130
6. Nc1ncc(-c2ccccc2)nc1C(=O)Nc1cnccc1[C@H]1C[C@@H](O)[C@H](O)[C@@H](CO)O1 [Example 341]	60
7. CC(C)[C@H]1C[C@@H](N)C[C@@H](c2ccncc2NC(=O)c2nc(-c3ccccc3)cnc2N)O1 [Example 292]	4300
8. CC[C@]1(O)[C@H](C)O[C@H](c2ccncc2NC(=O)c2nc(-c3ccccc3)cnc2N)C[C@@H]1N [Example 189]	1400
9. C[C@]1(O)[C@@H](N)C[C@H](c2ccncc2NC(=O)c2nc(-c3ccccc3)cnc2N)OC12CC2 [Example 351]	7

(A) CC[C@H]1O[C@@H](c2ccncc2NC(=O)c2nc(-c3ccccc3)cnc2N)C[C@@H](N)[C@]1(C)O [Example 348]
(B) CC[C@@H]1O[C@H](c2ccncc2NC(=O)c2nc(-c3ccccc3)cnc2N)C[C@H](N)[C@@]1(C)O [Example 345]
Inquiry: Hi, I'm comparing A with B and wondering which one has the bigger number for IC50. Any idea? Indicate your choice by writing its label.
Reply text: B

Recorded values, source patent US20130109682A1.
